- Test system: PC-3
- ASSAY METHOD TEXT: Antiproliferative activity against human PC-3 cells assessed as cell growth inhibition measured after 48 hrs by MTT assay
- Type: functional, cell-based
- CONDITION DESCRIPTION: PC-3, 48 h
pIC50: −log10 of the molar value.
pIC50 values, listed per item

>  <COMPOUND>
COc1cc(-c2nc(NC(=O)CSC(=S)N3CCc4cc(Br)ccc43)nnc2-c2ccc(C)cc2)cc(OC)c1OC

>  <pIC50>
4.70

$$$$
>  <COMPOUND>
COc1cc(-c2nc(NC(=O)CSC(=S)N3CCN(Cc4ccc(C(C)(C)C)cc4)CC3)nnc2-c2ccc(C)cc2)cc(OC)c1OC

>  <pIC50>
4.97

$$$$
>  <COMPOUND>
COc1ccc2c(c1)CCN2C(=S)SCC(=O)Nc1nnc(-c2ccc(C)cc2)c(-c2cc(OC)c(OC)c(OC)c2)n1

>  <pIC50>
5.21

$$$$
>  <COMPOUND>
COc1cc(-c2nc(NC(=O)CSC(=S)N3CCCC3)nnc2-c2ccc(C)cc2)cc(OC)c1OC

>  <pIC50>
4.35

$$$$
>  <COMPOUND>
COc1cc(-c2nc(NC(=O)CSC(=S)N3c4ccccc4CC3C)nnc2-c2ccc(C)cc2)cc(OC)c1OC (stereo unspecified)

>  <pIC50>
4.28

$$$$
>  <COMPOUND>
COc1cc(-c2nc(NC(=O)CSC(=S)N3CCN(C)CC3)nnc2-c2ccc(C)cc2)cc(OC)c1OC

>  <pIC50>
5.08

$$$$
